# TGT: T1, hPD-1-Fc (human, UniProt Q15116 25-167)
# T1 construct: domain: IgV domain; also called human PD-1-Fc; not shown: human IgG1 Fc
# METHOD_SUMMARY: blocking ELISA, PD-1 to PD-L1
pIC50 overview
Schema: pIC50 number; meaning minus log10 of the concentration expressed in molar units.

Before answering, review these 2 worked examples.
31B1 (antibody, V domains shown, also called 780_38; 33B1 and 31B2 (apparent misprints)) VH: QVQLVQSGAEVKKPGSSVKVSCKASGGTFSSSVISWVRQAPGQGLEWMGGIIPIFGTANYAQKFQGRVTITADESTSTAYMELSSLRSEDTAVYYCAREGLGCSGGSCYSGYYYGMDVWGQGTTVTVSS VL: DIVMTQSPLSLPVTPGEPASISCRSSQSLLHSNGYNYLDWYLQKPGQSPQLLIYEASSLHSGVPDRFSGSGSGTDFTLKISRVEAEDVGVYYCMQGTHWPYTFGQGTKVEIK
8.58
38B2 (antibody, V domains shown, 24H9 derivative, IgG; also called 780_54; hPD1 Ab (38B2)) VH: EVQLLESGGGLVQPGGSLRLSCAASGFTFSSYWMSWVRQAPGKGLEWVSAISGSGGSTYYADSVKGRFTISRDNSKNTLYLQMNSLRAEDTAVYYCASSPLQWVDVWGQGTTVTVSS VL: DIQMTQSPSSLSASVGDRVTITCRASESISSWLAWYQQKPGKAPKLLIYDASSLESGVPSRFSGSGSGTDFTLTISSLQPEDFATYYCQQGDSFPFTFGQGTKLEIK
8.63

I have this binder here, 33C4 (antibody, V domains shown, also called 780_39) VH: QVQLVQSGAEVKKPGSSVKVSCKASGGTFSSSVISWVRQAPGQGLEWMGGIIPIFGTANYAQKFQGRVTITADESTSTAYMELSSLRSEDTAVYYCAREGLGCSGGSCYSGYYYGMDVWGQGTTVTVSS VL: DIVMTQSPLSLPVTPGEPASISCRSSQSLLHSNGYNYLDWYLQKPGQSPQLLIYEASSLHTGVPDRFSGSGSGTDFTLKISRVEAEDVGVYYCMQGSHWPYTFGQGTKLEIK , and I need its recorded pIC50.
8.56
